# % of positive control peptide binding values compiled below
# assayed-system: T1, MHC class I allele A*0301 (bound via biotin to streptavidin-coated plate)
# T1 construct: iTopia MHC class I monomer on the plate; placeholder peptide and b2M removed, then reconstituted with test peptide and fresh b2M; also called A3; HLA A3
# protocol-summary: iTopia peptide binding assay

binder	reading-unit	% of positive control peptide binding
LASNHFLYL [5T4 9 mer peptide 109 LASNHFLYL]	%	18
DEVRAGAFE (also called Peptide No 66) [5T4 9 mer peptide 66 DEVRAGAFE]	%	7
AFSGSNASV (also called Peptide No 81) [5T4 9 mer peptide 81 AFSGSNASV]	%	2
CSRGPAAGD (also called Peptide No 3) [5T4 9 mer peptide 3 CSRGPAAGD]	%	5
PPEDERQNR (also called Peptide No 93) [5T4 9 mer peptide 93 PPEDERQNR]	%	0
ASAVSAQPP (also called Peptide No 25) [5T4 9 mer peptide 25 ASAVSAQPP]	%	0
SLRQLDLSH (also called Peptide No 72) [5T4 9 mer peptide 72 SLRQLDLSH]	%	11
QCPALCECS (also called Peptide No 31) [5T4 9 mer peptide 31 QCPALCECS]	%	0
PDQCPALCE (also called Peptide No 30) [5T4 9 mer peptide 30 PDQCPALCE]	%	0
SSSPTSSAS (also called Peptide No 16) [5T4 9 mer peptide 16 SSSPTSSAS]	%	2
RLRLARLAL (also called Peptide No 8) [5T4 9 mer peptide 8 RLRLARLAL]	%	43
LPRDVLAQL [5T4 9 mer peptide 113 LPRDVLAQL]	%	3
RRLELASNH [5T4 9 mer peptide 107 RRLELASNH]	%	3
RQLDLSHNP (also called Peptide No 73) [5T4 9 mer peptide 73 RQLDLSHNP]	%	2
SEAARTVKC (also called Peptide No 35) [5T4 9 mer peptide 35 SEAARTVKC]	%	0
ERQNRSFEG (also called Peptide No 95) [5T4 9 mer peptide 95 ERQNRSFEG]	%	1
AFEHLPSLR (also called Peptide No 69) [5T4 9 mer peptide 69 AFEHLPSLR]	%	11
GAFARRPPL (also called Peptide No 55) [5T4 9 mer peptide 55 GAFARRPPL]	%	3
PFAFSGSNA (also called Peptide No 80) [5T4 9 mer peptide 80 PFAFSGSNA]	%	3

Values from patent US20090280138A1
